Biological target: Myeloid Cell Leukemia 1 (Mcl-1) (Homo sapiens, UniProt Q07820)
Sequence (Q07820 whole entry): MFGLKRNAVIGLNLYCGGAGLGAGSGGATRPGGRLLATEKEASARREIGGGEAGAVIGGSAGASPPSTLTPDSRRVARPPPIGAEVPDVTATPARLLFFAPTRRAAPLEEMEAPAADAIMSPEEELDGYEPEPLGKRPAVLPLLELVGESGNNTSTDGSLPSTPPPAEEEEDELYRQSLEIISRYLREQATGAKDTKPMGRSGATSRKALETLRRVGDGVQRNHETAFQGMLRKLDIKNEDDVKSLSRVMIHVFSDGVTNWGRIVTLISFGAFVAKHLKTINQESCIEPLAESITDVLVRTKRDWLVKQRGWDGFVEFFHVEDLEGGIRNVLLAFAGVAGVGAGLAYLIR
test_readout: log10(Ki) (log10 of the value in nM)

• COCCOCCn1c(C(=O)O)c2c3ccc(Cl)c(c31)-c1c(cnn1C)CSCc1cc(n(C)n1)CCc1cc(c3ccc(F)cc3c1)OCCC2 (single isomer, unassigned) [Compound 20] = 2.30
• Cn1nc2cc1CCc1cc(c3ccc(F)cc3c1)OCCCc1c(C(=O)O)[nH]c3c(c(Cl)ccc13)-c1c(cnn1C)CSC2 (single isomer, unassigned) [Compound 26] = -1.35
• Cc1nn(C)c2c1CSCc1cc(n(C)n1)CCc1cc(c3ccccc3c1)OCCCc1c(C(=O)O)n(C)c3c-2c(Cl)ccc13 (single isomer, unassigned) [Compound 12a] = -1.51
• CCn1c(C(=O)O)c2c3ccc(Cl)c(c31)-c1c(cnn1C)CCCc1cc(n(C)n1)CCc1cc(c3ccc(F)cc3c1)OCCC2 (single isomer, unassigned) [Compound 14] = 0.79
• Cc1nn(C)c2c1CSCc1cc(n(C)n1)CSc1cc(c3ccccc3c1)OCCCc1c(C(=O)O)n(C)c3c-2c(Cl)ccc13 (single isomer, unassigned) [Compound 1] = -0.13

====

Target: Myeloid Cell Leukemia 1 (Mcl-1) (Homo sapiens)
pKi: −log10 of the molar value.
Reported pKi values for the following molecules.
test_readout: pKi

- Cc1nn(C)c2c1CSCc1cc(n(C)n1)CCc1cc(c3ccc(F)cc3c1)OCCCc1c(C(=O)O)n(C)c3c-2c(Cl)ccc13 (single isomer, unassigned) [Compound 10a]: 10.39
- COCCOCc1nn(C)c2c1CSCc1cc(n(C)n1)CCc1cc(c3ccc(F)cc3c1)OCCCc1c(C(=O)O)n(C)c3c-2c(Cl)ccc13 (single isomer, unassigned) [Compound 7]: 7.28
- CN(C)CCn1c(C(=O)O)c2c3ccc(Cl)c(c31)-c1c(cnn1C)CSCc1cc(n(C)n1)CCc1cc(c3ccc(F)cc3c1)OCCC2 (single isomer, unassigned) [Compound 27]: 10.51

Numbers sourced from patent US20230265105A1.
